# System: BT-549
# assay_explanation: NCI tumour cell line growth inhibition, 48 h
Activity calls are given as the source filed them. No stated cut-off is given here; in the data, active = GI50 up to about 1.1 µM and inactive = higher.
Can you tell me GI50 for the items I'm about to list?

Reported GI50 ( `CCN(CC)c1nc(N(C)C)c2ccccc2n1` ) = 48.1 µM (inactive)

Reported GI50 ( COC(=O)C1C(O)C(C(=O)OC)C(C)N(C)C1C (stereo not given) ) = > 100 µM (inactive)

Reported GI50 ( O=C(C[C@H](NC(=O)OCc1ccccc1)C(=O)NC1Cc2ccccc2OC1=O)OCc1ccccc1 (stereo not given in full) ) = > 100 µM (inactive)

Reported GI50 ( CC1(O)CC2(O)C=CC3=C(C(=O)c4cccc(O)c4C3=O)C2(O)C(=O)C1O (stereo not given) ) = 1.17 µM (inactive)

Reported GI50 ( `COc1cccc(-c2c(-c3ccccc3)[nH]c(C)c2C(=O)ONC(=O)c2ccccc2)c1` ) = 5.41 µM (inactive)

---

# System: BT-549
# assay_explanation: NCI tumour cell line growth inhibition, 48 h
Calls of active or inactive are those of the source. Cut-off read from the data, not from the text of the source: active = GI50 up to about 1.1 µM and inactive = higher.
property: GI50

Reported GI50 ( `Cc1nc(N)c(N2CCN(CN)CC2)c(O)n1` ) = > 100 µM (inactive)

Reported GI50 ( `COC(=O)NC(Nc1ccccn1)(C(F)(F)F)C(F)(F)F` ) = > 100 µM (inactive)

Reported GI50 ( COC1C(O)CC(OC2CC(OC3CC(O[C@@H]4C(=O)c5c(cc6cc(OC7CC(OC8CC(O)C(O)C(C)O8)C(O)C(C)O7)c(C)c(O)c6c5O)C[C@H]4[C@H](OC)C(=O)[C@@H](O)[C@@H](C)O)OC(C)C3O)OC(C)C2O)OC1C (stereo not given in full) ) = < 0.01 µM (active)

Reported GI50 ( COC(OC)C1OC(CO)C(n2cc(C)c(=O)[nH]c2=O)C1O (stereo not given) ) = > 100 µM (inactive)

Reported GI50 ( `CCS(=O)(=O)CCn1c(=O)c2c(ncn2C)n(C)c1=O` ) = > 100 µM (inactive)

---

# System: UACC-62
# assay_explanation: NCI tumour cell line growth inhibition, 48 h
Where a name gives a salt, the structure may show the parent alone. Activity calls are given as the source filed them. Rule as the data show it: active = GI50 up to about 1.1 µM and inactive = higher.
Lab note: assign the record to one of active, inactive

For COc1ccc(Cc2nccc3cc(OC)c(OC)cc23)cc1OC [PAPAVERINE HYDROCHLORIDE] , which call appears in the assay record?
inactive

For `CNS(=O)(=O)NNS(=O)(=O)c1cccc([N+](=O)[O-])c1` , which call appears in the assay record?
inactive

For CCOC(=O)NC(NC(C)CC)(C(F)(F)F)C(F)(F)F (stereo unspecified) , which call appears in the assay record?
inactive

For O=C1CCC2(c3ccccc3)Nc3ccc(Cl)cc3N12 (stereo unspecified) , which call appears in the assay record?
inactive

For CC1CC/C(=C\c2ccc(F)cc2)C2=C1C(c1ccc(F)cc1)n1c(s/c(=C/c3cccc(Br)c3)c1=O)=N2 (stereo unspecified) , which call appears in the assay record?
inactive

For CN(c1cn(C2CC[C@@H](CO)O2)c(=O)[nH]c1=O)C1CCCCC1 (stereo partly specified) , which call appears in the assay record?
inactive

For `NC1=NS(=O)(=O)Nc2nc(-c3cccs3)[nH]c21` , which call appears in the assay record?
inactive

For `O=C(N/C(=C\c1cc(Cl)ccc1Cl)c1nc2c(O)nc(S)nc2[nH]1)c1ccccc1` , which call appears in the assay record?
inactive

For `COc1c(CC(=O)c2ccccc2)c2ccccc2n1C(C)=O` , which call appears in the assay record?
inactive

For `c1cnc2c(c1)Nc1cnncc1S2` , which call appears in the assay record?
inactive

For O=C(O)CC(NC(=O)Nc1ccc([N+](=O)[O-])cc1)C(=O)Nc1ccc([N+](=O)[O-])cc1 (stereo unspecified) , which call appears in the assay record?
active

For CCCN1CN(C(C(=O)N[C@@H]2C(=O)N3C(C(=O)O)=C(C)CSC23)c2ccc(O)cc2)CSC1=S (stereo partly specified) , which call appears in the assay record?
inactive

For `Cc1ccc(/C=C/C(=O)c2sc(-c3cccnc3)nc2C)cc1` , which call appears in the assay record?
inactive

For CN1CN(c2ccccc2)C2(CCN(C3Nc4ccccc4O3)CC2)C1=O (stereo unspecified) , which call appears in the assay record?
inactive

For `NC1=Nc2ccccc2Sc2ccccc21` , which call appears in the assay record?
inactive

For `COC(=O)CC[N+]1=CCC(c2ccccc2)(c2ccccc2)O1` , which call appears in the assay record?
inactive

For C/C(=C\CBr)CCC(Br)C(C)(C)Br (stereo unspecified) , which call appears in the assay record?
inactive

For `CC1=NNC(=S)NCCCN2CCN(CCCNC(=S)NN=C(C)C=NNC(=S)NCCCN3CCN(CCCNC(=S)NN=C1)CC3)CC2` , which call appears in the assay record?
inactive

For `COC(=O)C(I(OS(=O)(=O)c1ccc(C)cc1)c1ccccc1)=P(c1ccccc1)(c1ccccc1)c1ccccc1` , which call appears in the assay record?
inactive

For `Cc1nc(Nc2ccccc2)sc1C(=O)CC(=O)C(=O)NC12CC3CC(CC(C3)C1)C2` , which call appears in the assay record?
inactive

For COc1ccc2c(c1)CCCN1CCc3cc(OC)c(OC)cc3C21 (stereo unspecified) , which call appears in the assay record?
inactive

---

# System: SK-MEL-28
# assay_explanation: NCI tumour cell line growth inhibition, 48 h
Activity calls are given as the source filed them. Rule as the data show it: active = GI50 up to about 1.1 µM and inactive = higher.
property: GI50

Reported GI50 ( `NC(=O)c1cc2cc(Cl)cc(Cl)c2o/c1=N\c1ccc(F)cc1` ) = 21.9 µM (inactive)

Reported GI50 ( `COC(=O)NC(Nc1ccccn1)(C(F)(F)F)C(F)(F)F` ) = > 100 µM (inactive)

Reported GI50 ( CN(c1cn(C2CC[C@@H](CO)O2)c(=O)[nH]c1=O)C1CCCCC1 (stereo partly specified) ) = > 100 µM (inactive)

Reported GI50 ( CCOC(=O)C(C(=O)OCC)=C1NC2(c3ccccc3Nc3ccc(C)cc32)C(C(=O)OC)S1 (stereo unspecified) ) = > 100 µM (inactive)

Reported GI50 ( `COC(=O)[C@@H]1Cc2ccc(OC)c(c2)OCCC(=O)N1` ) = > 100 µM (inactive)

Reported GI50 ( `O=[N+]([O-])c1oc2ccc3ccccc3c2c1CCO` ) = 1.38 µM (inactive)

Reported GI50 ( `Cc1cn2cc(-c3ccncc3)nc2s1` ) = > 100 µM (inactive)

Reported GI50 ( `COC(=O)CCCc1c(-c2[nH]c3ccccc3c2CCCC(=O)OC)[nH]c2ccccc12` ) = > 100 µM (inactive)

Reported GI50 ( Cc1cn(CC2=NCC(C)N2)c(=O)[nH]c1=O (stereo unspecified) ) = > 100 µM (inactive)

Reported GI50 ( N#CC1=C(N)Oc2c(ccc3cccnc23)C1c1ccccc1 (stereo unspecified) ) = 6.12 µM (inactive)

Reported GI50 ( `CCN(CCCl)CCCCCNc1c2ccccc2nc2ccc(OC)cc12` ) = 2.72 µM (inactive)

Reported GI50 ( CCOC(OCC)C(CCc1ccccc1)c1c(N)nc(N)[nH]c1=O (stereo unspecified) ) = > 100 µM (inactive)

Reported GI50 ( `CCOCN/C(N)=N\C#N` ) = > 100 µM (inactive)

Reported GI50 ( `N#Cc1[nH]c(=O)n(-c2ccccc2)c1N` ) = > 10 µM (inactive)

Reported GI50 ( O=C(O)C1CC=CCC1C(=O)Nc1cccc(O)c1 (stereo unspecified) ) = > 100 µM (inactive)

Reported GI50 ( Cc1ccc(OCC2OC(n3cnc4nc(Nc5ccc(Cl)c(Cl)c5)nc(Cl)c43)CC2Oc2ccc(C)cc2)cc1 (stereo unspecified) ) = > 100 µM (inactive)

Reported GI50 ( `O=C1C(O)=C(C(CCc2ccccc2)C2=C(O)C(=O)c3ccccc3C2=O)C(=O)c2ccccc21` ) = > 100 µM (inactive)

Reported GI50 ( CCOC(=O)C12CCSC1C1(C#N)C(C#N)=CC2(N=P(c2ccccc2)(c2ccccc2)c2ccccc2)n2c(=O)n(-c3ccccc3)c(=O)n21 (stereo unspecified) ) = 27.5 µM (inactive)

Reported GI50 ( C/C(=C\CBr)CCC(Br)C(C)(C)Br (stereo unspecified) ) = > 100 µM (inactive)

Reported GI50 ( `COC(=O)[C@H](Cc1ccccc1)NC(=O)c1ccc(CNC(=O)/C=C/c2cccc(Oc3ccccc3)c2)cc1` ) = 9.33 µM (inactive)

Reported GI50 ( CNC(=O)NCCCCC(NC(=O)OCc1ccccc1)C(=O)OCc1ccccc1 (stereo unspecified) ) = 21.1 µM (inactive)

Reported GI50 ( `C/C(=N/NC(N)=S)c1ccc2ccccc2c1` ) = 36.1 µM (inactive)

Reported GI50 ( CC(C)CC(NC(=O)C(Cc1ccccc1)NC(=O)[C@H]1CC[C@H](NC(=O)C(Cc2ccc(OC(C)(C)C)cc2)NC(=O)OC(C)(C)C)C1)C(N)=O (stereo partly specified) ) = 20.2 µM (inactive)

Reported GI50 ( `COC(=O)/C=C/C(=O)Nc1cc(Cl)c(Cl)cc1CC(=O)N(C)[C@H]1CCCC[C@@H]1N1CCCC1` ) = 16.1 µM (inactive)

Reported GI50 ( `COc1ccc2nc3cc(Cl)ccc3c(Nc3ccccc3-c3ccccc3Nc3c4ccc(Cl)cc4nc4ccc(OC)cc34)c2c1` ) = 41.8 µM (inactive)

Reported GI50 ( COc1ccc(C(NS(=O)(=O)c2ccc(C)cc2)c2c(C(CBr)OC)c3ccccc3n2S(=O)(=O)c2ccccc2)cc1OC (stereo unspecified) ) = > 100 µM (inactive)

Reported GI50 ( CC1=NN(C(=O)c2ccncc2)C(=O)C1/N=N/c1ccc(F)cc1 (stereo unspecified) ) = > 100 µM (inactive)

Reported GI50 ( COc1ccc(C2=NN(C(=O)c3ccccc3)C(O)(c3cc(F)c(Cl)cc3Cl)C2)cc1OC (stereo unspecified) ) = 49.8 µM (inactive)

Reported GI50 ( `O=C1Nc2ccccc2C1=Nc1ccc(S(=O)(=O)Nc2nccs2)cc1` ) = > 100 µM (inactive)

Reported GI50 ( `Cc1ccc(C(=O)O)c(/C=C2\Cc3ccc(C)cc3C2=O)c1` ) = 78.9 µM (inactive)

Reported GI50 ( CC(C)(C)S(=O)OC12CC3CC(CC(C3)C1)C2 (stereo unspecified) ) = > 100 µM (inactive)

Reported GI50 ( `CCc1n[nH]c(=O)n1/N=C/c1ccccc1O` ) = > 100 µM (inactive)

Reported GI50 ( C=C(C)C(=O)OC1CCC2(C)C(CCC3C2CCC2(C)C(c4ccc(=O)oc4)CC4OC432)C1 (stereo unspecified) ) = 12.5 µM (inactive)

Reported GI50 ( `O=C1C=CC(=O)c2c(NCC3CC3)ccc(NCC3CC3)c21` ) = 28.6 µM (inactive)

Reported GI50 ( `O=C1CSC(/C(=C\c2ccc(Cl)cc2)c2nc3ccccc3[nH]2)=N1` ) = 15.7 µM (inactive)

Reported GI50 ( `CCS(=O)(=O)CCn1c(=O)c2c(ncn2C)n(C)c1=O` ) = > 100 µM (inactive)

Reported GI50 ( `CC1=NNC(=S)NCCCN2CCN(CCCNC(=S)NN=C(C)C=NNC(=S)NCCCN3CCN(CCCNC(=S)NN=C1)CC3)CC2` ) = > 100 µM (inactive)

Reported GI50 ( CC(NC(=O)C(N)Cc1ccc(O)cn1)C(=O)O (stereo unspecified) ) = > 100 µM (inactive)

Reported GI50 ( CCCC/C=C1\CCC(CN2CCCC2)C1=O (stereo unspecified) ) = 15.7 µM (inactive)

Reported GI50 ( `CC(=O)[C@@]1(O)CC[C@H]2[C@@H]3C[C@H](C)C4=CC(=O)CC[C@]4(C)[C@H]3[C@@H](O)C[C@@]21C` ) = > 100 µM (inactive)

Reported GI50 ( `CC(C)(CN1CCOCC1)C(=O)/C=C/c1ccc(/C=C/C(=O)C(C)(C)CN2CCOCC2)cc1` ) = 1.77 µM (inactive)
